# TESTED TARGET: human topoisomerase II (Homo sapiens, UniProt P11388)
# Construct: Topo II was purified from late log phase suspension cultures of HeLa WIS; endogenous in cells; host or cells: HeLa WIS
# Sequence (P11388 whole entry): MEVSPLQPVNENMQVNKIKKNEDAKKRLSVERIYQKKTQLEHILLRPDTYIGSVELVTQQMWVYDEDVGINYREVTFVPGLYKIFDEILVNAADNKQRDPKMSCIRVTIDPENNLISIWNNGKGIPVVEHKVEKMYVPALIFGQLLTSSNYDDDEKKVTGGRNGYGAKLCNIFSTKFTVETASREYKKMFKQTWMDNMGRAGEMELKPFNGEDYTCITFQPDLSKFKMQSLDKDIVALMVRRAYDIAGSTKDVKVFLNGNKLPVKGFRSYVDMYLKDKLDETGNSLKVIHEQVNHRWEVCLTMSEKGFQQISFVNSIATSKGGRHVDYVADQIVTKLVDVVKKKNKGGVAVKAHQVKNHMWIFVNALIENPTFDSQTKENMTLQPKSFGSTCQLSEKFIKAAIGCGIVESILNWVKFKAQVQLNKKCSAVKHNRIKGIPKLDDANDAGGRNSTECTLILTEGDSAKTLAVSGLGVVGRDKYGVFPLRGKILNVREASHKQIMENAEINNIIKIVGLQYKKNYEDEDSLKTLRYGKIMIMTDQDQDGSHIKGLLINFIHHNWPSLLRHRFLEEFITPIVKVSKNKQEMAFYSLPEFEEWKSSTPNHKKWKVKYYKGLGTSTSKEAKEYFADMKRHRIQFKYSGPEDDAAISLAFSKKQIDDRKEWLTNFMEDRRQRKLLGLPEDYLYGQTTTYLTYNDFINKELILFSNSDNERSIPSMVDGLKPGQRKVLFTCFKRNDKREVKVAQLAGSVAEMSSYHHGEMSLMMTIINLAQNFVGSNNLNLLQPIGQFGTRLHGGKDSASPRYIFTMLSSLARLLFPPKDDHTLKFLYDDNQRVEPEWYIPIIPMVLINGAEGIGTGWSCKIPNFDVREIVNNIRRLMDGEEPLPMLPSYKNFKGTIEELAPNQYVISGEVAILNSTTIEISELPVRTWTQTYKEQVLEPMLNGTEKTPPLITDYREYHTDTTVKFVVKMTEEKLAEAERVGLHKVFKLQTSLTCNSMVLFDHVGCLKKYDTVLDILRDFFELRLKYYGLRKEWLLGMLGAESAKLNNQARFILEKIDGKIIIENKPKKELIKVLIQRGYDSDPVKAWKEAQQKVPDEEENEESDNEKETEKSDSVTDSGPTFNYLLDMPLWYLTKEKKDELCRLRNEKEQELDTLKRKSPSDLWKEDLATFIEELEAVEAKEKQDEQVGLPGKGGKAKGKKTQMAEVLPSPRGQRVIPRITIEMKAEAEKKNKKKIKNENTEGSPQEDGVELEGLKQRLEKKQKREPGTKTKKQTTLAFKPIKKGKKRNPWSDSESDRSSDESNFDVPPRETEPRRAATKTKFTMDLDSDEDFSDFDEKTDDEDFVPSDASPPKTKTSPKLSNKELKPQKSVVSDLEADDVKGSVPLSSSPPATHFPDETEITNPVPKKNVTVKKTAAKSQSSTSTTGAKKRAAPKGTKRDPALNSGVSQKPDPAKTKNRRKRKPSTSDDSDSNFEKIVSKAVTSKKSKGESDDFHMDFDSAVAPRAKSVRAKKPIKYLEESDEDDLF
# ASSAY NOTES: Mammalian topoisomerase II inhibition assay (topo II covalently attached to DNA, relative to mAMSA)
# Format: biochemical
# MEASUREMENT SETUP: conc. achieving 50% of maximal effect of mAMSA; topo II from HeLa cells; read-out: topo II inh. EC50
# From the text: The inhibition of human topoisomerase II (hereafter topo II) was quantitated by a procedure adapted from that described by Trask et al., EMBO J., 3, 671-676 (1984). The assay quantitates the amount of topo II covalently attached to DNA at equilibrium during a topo II reaction. This assay determines the potential of a compound to stabilize this complex, which potential is closely related to the cytotoxicity of the compound. […]
MEASURE: EC50 (µM)

Past entries and their recorded results:
INSERT INTO assay_data (compound, tested_target, measure, units_of_measure, observed) VALUES
  ('Cc1cc(-c2c(F)cc3c4nn(CCO)c(=O)c-4cn(C4CC4)c3c2F)cc(C)n1 [Example 10]', 'human topoisomerase II (Homo sapiens, UniProt P11388)', 'EC50', 'µM', 6.4),
  ('Cc1cc(-c2c(F)cc3c4nn(CCCN(C)C)c(=O)c-4cn(C4CC4)c3c2F)cc(C)n1 [Example 14]', 'human topoisomerase II (Homo sapiens, UniProt P11388)', 'EC50', 'µM', 1.7);

(a) Cc1cc(-c2c(F)cc3c4nn(C(C)C)c(=O)c-4cn(C4CC4)c3c2F)cc(C)n1 [Example 3]
(b) COc1ccccc1CCn1nc2c3cc(F)c(-c4cc(C)nc(C)c4)c(F)c3n(C3CC3)cc-2c1=O [Example 38]
(c) Cc1cc(-c2c(F)cc3c4nn(-c5cccc6ccccc56)c(=O)c-4cn(C4CC4)c3c2F)cc(C)n1 [Example 28]
(d) Cc1cc(-c2c(F)cc3c4nn(Cc5ccc(O)cc5)c(=O)c-4cn(C4CC4)c3c2F)cc(C)n1 [Example 35]
Arrange by EC50, high to low. Reply with the item labels sorted in the order that was asked for.
b, a, c, d
(b: 11 µM, a: 5 µM, c: 2.9 µM, d: 1.5 µM)

(1) Cc1cc(-c2c(F)cc3c4nn(CCNC(C)(CO)CO)c(=O)c-4cn(C4CC4)c3c2F)cc(C)n1 [Example 55]
(2) Cc1cc(-c2c(F)cc3c4nn(CCc5ccccc5)c(=O)c-4cn(C4CC4)c3c2F)cc(C)n1 [Example 37]
(3) CCCCn1nc2c3cc(F)c(-c4cc(C)nc(C)c4)c(F)c3n(C3CC3)cc-2c1=O [Example 4]
Order the entries by their reported EC50, beginning at the minimum. Labels, ranked as asked.
3, 2, 1
(3: 2.9 µM, 2: 5 µM, 1: 11 µM)
